measured target: human CCR8 (human, UniProt P51685 1-355)
method summary: cell-based or functional assay
measured endpoint: hCCL1 (100 nM) residual response in %, Protocol #3, mAb 0.05 µg/mL (0.33 nM) (%)
Record the value in %, omitting the unit from your answer.

// hCCL1 (100 nM) residual response in %, Protocol #3, mAb 0.05 µg/mL (0.33 nM) lookup, binder = humanized anti-CCR8 mAb 2-15 (antibody, human IgG1, kappa, V domains shown, Humanized, human IgG1 / kappa) VH: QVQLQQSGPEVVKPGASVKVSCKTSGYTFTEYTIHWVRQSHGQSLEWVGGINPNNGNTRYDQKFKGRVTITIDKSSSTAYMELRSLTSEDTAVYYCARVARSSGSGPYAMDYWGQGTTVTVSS VL: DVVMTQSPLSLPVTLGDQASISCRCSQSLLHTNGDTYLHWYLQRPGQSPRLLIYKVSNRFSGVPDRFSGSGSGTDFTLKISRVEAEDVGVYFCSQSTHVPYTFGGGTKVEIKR , result: 73
